# Tested Target: T1, human EpCAM (epithelial cell adhesion/activating molecule) (human, UniProt P16422 24-314)
# T1 sequence: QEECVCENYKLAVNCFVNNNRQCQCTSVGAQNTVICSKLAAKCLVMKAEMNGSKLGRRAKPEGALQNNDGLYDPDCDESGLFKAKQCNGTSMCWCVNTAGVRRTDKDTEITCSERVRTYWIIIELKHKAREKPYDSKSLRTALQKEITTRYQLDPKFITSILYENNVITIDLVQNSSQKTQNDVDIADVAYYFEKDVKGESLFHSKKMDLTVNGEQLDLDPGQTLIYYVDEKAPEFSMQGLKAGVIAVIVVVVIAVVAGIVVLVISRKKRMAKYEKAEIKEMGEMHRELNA
# Protocol Text: cell-based or functional assay
Quantity Measured: % Annexin V/PI-positive cells, LNCaP, 1.0 µg/ml mAb
Please provide the amount together with its unit, number first.

Query: Entry under review: murine monoclonal antibody 12H8 (antibody, mouse IgG2a, V domains shown, Mouse IgG2a, kappa, from hybridoma; also called m342-12H8.3; m12H8) VH: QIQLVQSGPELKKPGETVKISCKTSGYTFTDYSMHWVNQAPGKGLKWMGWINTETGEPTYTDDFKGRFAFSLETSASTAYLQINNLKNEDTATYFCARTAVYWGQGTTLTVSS VL: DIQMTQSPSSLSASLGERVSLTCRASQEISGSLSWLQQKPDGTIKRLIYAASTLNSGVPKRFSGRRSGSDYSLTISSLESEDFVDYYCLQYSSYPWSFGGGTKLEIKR . Reported % Annexin V/PI-positive cells, LNCaP, 1.0 µg/ml mAb?
Reply: 61%
